assay: Phase I dose escalation trial: pharmacokinetic profile; assay type: in vivo, human; details: human, plasma, oral, 1000 mg, Total Daily Dose 1000 (mg), bid q6h, patient plasma; read-out: AUC0-24
PROPERTY: AUC(0-t)

CC(=O)c1cc2c(o1)C(=O)c1ccccc1C2=O [Compound 1, 2-acetylnaphtho[2,3-b]furan-4,9-dione]; 15.8 µM·h

====

test: Phase I dose escalation trial: pharmacokinetic profile; type: in vivo, human; settings: human, plasma, oral, 320 mg, Total Daily Dose 320 (mg), bid q4h, patient plasma; read-out: T1/2,t (converted)
PROPERTY: half-life

CC(=O)c1cc2c(o1)C(=O)c1ccccc1C2=O [Compound 1, 2-acetylnaphtho[2,3-b]furan-4,9-dione]; 5.7 h

====

Assay: Phase I dose escalation trial: pharmacokinetic profile
Format: in vivo, human
Conditions: human, plasma, oral, 80 mg, Total Daily Dose 80 (mg), bid q4h, patient plasma; read-out: T1/2,t (converted)
From the text: Pharmacokinetics profile with oral bid dosing was also studied. The plasma concentration of the drug reached several folds over the efficacious concentration (in vitro IC50) as illustrated in Table 8. […]
PROPERTY: half-life (h)

CC(=O)c1cc2c(o1)C(=O)c1ccccc1C2=O [Compound 1, 2-acetylnaphtho[2,3-b]furan-4,9-dione]; 3.6

====

experiment: Phase 1 extension study of higher strength capsule (DP2A): pharmacokinetics; type: in vivo; conditions: human, plasma, oral, 500 mg, Patient 0054, single 500 mg dose - fed
PROPERTY: Cmax

CC(=O)c1cc2c(o1)C(=O)c1ccccc1C2=O [Compound 1, 2-acetylnaphtho[2,3-b]furan-4,9-dione]; 6.25 µM

====

Test: Phase I dose escalation trial: pharmacokinetic profile
Format: in vivo, human
Settings: human, plasma, oral, 1000 mg, Total Daily Dose 1000 (mg), bid q6h, patient plasma
Description: Pharmacokinetics profile with oral bid dosing was also studied. The plasma concentration of the drug reached several folds over the efficacious concentration (in vitro IC50) as illustrated in Table 8. […]
PROPERTY: Cmax (nM)

CC(=O)c1cc2c(o1)C(=O)c1ccccc1C2=O [Compound 1, 2-acetylnaphtho[2,3-b]furan-4,9-dione]; 1360

====

experiment: Phase I dose escalation trial: pharmacokinetic profile; type: in vivo, human; details: human, plasma, oral, 1000 mg, Total Daily Dose 1000 (mg), bid q4h, patient plasma
PROPERTY: Cmax

CC(=O)c1cc2c(o1)C(=O)c1ccccc1C2=O [Compound 1, 2-acetylnaphtho[2,3-b]furan-4,9-dione]; 4.97 µM

====

Assay: Phase I dose escalation trial: pharmacokinetic profile
Assay type: in vivo, human
Details: human, plasma, oral, 800 mg, Total Daily Dose 800 (mg), bid q4h, patient plasma
Excerpt: Pharmacokinetics profile with oral bid dosing was also studied. The plasma concentration of the drug reached several folds over the efficacious concentration (in vitro IC50) as illustrated in Table 8. […]
PROPERTY: Tmax (h)

CC(=O)c1cc2c(o1)C(=O)c1ccccc1C2=O [Compound 1, 2-acetylnaphtho[2,3-b]furan-4,9-dione]; 4.3

====

test: Phase I dose escalation trial: pharmacokinetic profile; format: in vivo, human; conditions: human, plasma, oral, 80 mg, Total Daily Dose 80 (mg), bid q4h, patient plasma
PROPERTY: Cmax

CC(=O)c1cc2c(o1)C(=O)c1ccccc1C2=O [Compound 1, 2-acetylnaphtho[2,3-b]furan-4,9-dione]; 900 nM

====

test: Phase 1 extension study of higher strength capsule (DP2A): pharmacokinetics; format: in vivo; conditions: human, plasma, oral, 500 mg, Patient 0053, single 500 mg dose - fed, read-out: AUC0-24
PROPERTY: AUC(0-t) (µM·h)

CC(=O)c1cc2c(o1)C(=O)c1ccccc1C2=O [Compound 1, 2-acetylnaphtho[2,3-b]furan-4,9-dione]; 79.6

====

test: Phase I dose escalation trial: pharmacokinetic profile; format: in vivo, human; details: human, plasma, oral, 2000 mg, Total Daily Dose 2000 (mg), bid q4h, patient plasma; read-out: C24h
PROPERTY: concentration at 24 h (nM)

CC(=O)c1cc2c(o1)C(=O)c1ccccc1C2=O [Compound 1, 2-acetylnaphtho[2,3-b]furan-4,9-dione]; 800

====

Test: Phase I dose escalation trial: pharmacokinetic profile
Assay type: in vivo, human
Conditions: human, plasma, oral, 80 mg, Total Daily Dose 80 (mg), qd, patient plasma
Description: Pharmacokinetics profile with oral bid dosing was also studied. The plasma concentration of the drug reached several folds over the efficacious concentration (in vitro IC50) as illustrated in Table 8. […]
PROPERTY: Cmax (µM)

CC(=O)c1cc2c(o1)C(=O)c1ccccc1C2=O [Compound 1, 2-acetylnaphtho[2,3-b]furan-4,9-dione]; 2.24

====

test: Phase I dose escalation trial: pharmacokinetic profile; assay type: in vivo, human; conditions: human, plasma, oral, 600 mg, Total Daily Dose 600 (mg), bid q4h, patient plasma
PROPERTY: Tmax (h)

CC(=O)c1cc2c(o1)C(=O)c1ccccc1C2=O [Compound 1, 2-acetylnaphtho[2,3-b]furan-4,9-dione]; 3.2

====

assay: Phase I dose escalation trial: pharmacokinetic profile; type: in vivo, human; conditions: human, plasma, oral, 600 mg, Total Daily Dose 600 (mg), bid q4h, patient plasma; read-out: AUC0-24
PROPERTY: AUC(0-t) (µM·h)

CC(=O)c1cc2c(o1)C(=O)c1ccccc1C2=O [Compound 1, 2-acetylnaphtho[2,3-b]furan-4,9-dione]; 27.8

====

Test: Phase I dose escalation trial: pharmacokinetic profile
Type: in vivo, human
Settings: human, plasma, oral, 2000 mg, Total Daily Dose 2000 (mg), bid q4h, patient plasma
Description: Pharmacokinetics profile with oral bid dosing was also studied. The plasma concentration of the drug reached several folds over the efficacious concentration (in vitro IC50) as illustrated in Table 8. […]
PROPERTY: Tmax (h)

CC(=O)c1cc2c(o1)C(=O)c1ccccc1C2=O [Compound 1, 2-acetylnaphtho[2,3-b]furan-4,9-dione]; 6.3

====

test: Phase I dose escalation trial: pharmacokinetic profile; format: in vivo, human; conditions: human, plasma, oral, 20 mg, Total Daily Dose 20 (mg), qd, patient plasma
PROPERTY: AUC

CC(=O)c1cc2c(o1)C(=O)c1ccccc1C2=O [Compound 1, 2-acetylnaphtho[2,3-b]furan-4,9-dione]; 2.7 µM·h

====

test: Phase 1 extension study of higher strength capsule (DP2A): pharmacokinetics; assay type: in vivo; settings: human, plasma, oral, 500 mg, Patient 0061, single 500 mg dose - fed
PROPERTY: Cmax (nM)

CC(=O)c1cc2c(o1)C(=O)c1ccccc1C2=O [Compound 1, 2-acetylnaphtho[2,3-b]furan-4,9-dione]; 1540

====

experiment: Phase I dose escalation trial: pharmacokinetic profile; type: in vivo, human; conditions: human, plasma, oral, 80 mg, Total Daily Dose 80 (mg), qd, patient plasma; read-out: AUC0-24
PROPERTY: AUC(0-t) (µM·h)

CC(=O)c1cc2c(o1)C(=O)c1ccccc1C2=O [Compound 1, 2-acetylnaphtho[2,3-b]furan-4,9-dione]; 12.8

====

Assay: Phase I dose escalation trial: pharmacokinetic profile
Format: in vivo, human
Details: human, plasma, oral, 320 mg, Total Daily Dose 320 (mg), bid q4h, patient plasma
Description: Pharmacokinetics profile with oral bid dosing was also studied. The plasma concentration of the drug reached several folds over the efficacious concentration (in vitro IC50) as illustrated in Table 8. […]
PROPERTY: Tmax (h)

CC(=O)c1cc2c(o1)C(=O)c1ccccc1C2=O [Compound 1, 2-acetylnaphtho[2,3-b]furan-4,9-dione]; 3.8

====

Test: Pharmacokinetics when taken fasting, with milk or with food
Format: in vivo, human
Conditions: human, in vivo, oral, Patient 24, With Milk
Method: In yet another suitable dosing regimen, Compound 1 was administered with a fluid, e.g., a milk or water, with empty stomach which improves pharmacokinetical exposure (Table 12). Counterintuitively, milk helped patients with gastrointestinal adverse effects. In yet another suitable dosing regimen, Compound 1 was administered with food which delayed the Tmax (Table 13).
PROPERTY: Tmax

CC(=O)c1cc2c(o1)C(=O)c1ccccc1C2=O [Compound 1, 2-acetylnaphtho[2,3-b]furan-4,9-dione]; 6.3 h

====

experiment: Phase I dose escalation trial: pharmacokinetic profile; type: in vivo, human; details: human, plasma, oral, 320 mg, Total Daily Dose 320 (mg), bid q4h, patient plasma
PROPERTY: AUC (µM·h)

CC(=O)c1cc2c(o1)C(=O)c1ccccc1C2=O [Compound 1, 2-acetylnaphtho[2,3-b]furan-4,9-dione]; 38.3

====

Assay: Pharmacokinetics when taken fasting, with milk or with food
Format: in vivo, human
Conditions: human, in vivo, oral, Patient 27, With Milk
Experimental: In yet another suitable dosing regimen, Compound 1 was administered with a fluid, e.g., a milk or water, with empty stomach which improves pharmacokinetical exposure (Table 12). Counterintuitively, milk helped patients with gastrointestinal adverse effects. In yet another suitable dosing regimen, Compound 1 was administered with food which delayed the Tmax (Table 13).
PROPERTY: Tmax (min)

CC(=O)c1cc2c(o1)C(=O)c1ccccc1C2=O [Compound 1, 2-acetylnaphtho[2,3-b]furan-4,9-dione]; 30

====

Assay: Phase I dose escalation trial: pharmacokinetic profile
Assay type: in vivo, human
Conditions: human, plasma, oral, 1400 mg, Total Daily Dose 1400 (mg), bid q4h, patient plasma
Text: Pharmacokinetics profile with oral bid dosing was also studied. The plasma concentration of the drug reached several folds over the efficacious concentration (in vitro IC50) as illustrated in Table 8. […]
PROPERTY: Cmax

CC(=O)c1cc2c(o1)C(=O)c1ccccc1C2=O [Compound 1, 2-acetylnaphtho[2,3-b]furan-4,9-dione]; 2050 nM
